ASSAY_EXPLANATION: Cytotoxicity against rat PC-12 cells assessed as cell viability at 50 uM by MTT assay relative to control
Format: cell-based
CONDITION_SET: read-out: Activity
Kindly state viability at 50 µM for each of the entries shown.
Your answer should be a plain number; it is taken to be in %.

IN: // viability at 50 µM lookup, key: O=c1c(O)c(-c2ccc(O)c(O)c2)oc2cc(O)cc(O)c12
OUT: 99.5

IN: Which viability at 50 µM reading was recorded for the compound CC(C)(C)c1ccc(Nc2cc(-c3noc(-c4ccc(NS(=O)(=O)c5ccc(C(C)(C)C)cc5)cc4)n3)ccn2)cc1 ?
OUT: 99.7

IN: Please report the recorded viability at 50 µM for CC(C)(C)c1ccc(S(=O)(=O)Nc2ccc(-c3nc(-c4ccnc(Nc5cccc(Cl)c5)c4)no3)cc2)cc1 .
OUT: 97.2

IN: Record request: viability at 50 µM value, item Cc1ccccc1Nc1cc(-c2noc(-c3ccc(NS(=O)(=O)c4ccc(C(C)(C)C)cc4)cc3)n2)ccn1
OUT: 99.3

IN: What value of measured viability at 50 µM is listed for COc1ccc(S(=O)(=O)Nc2ccc(-c3nc(-c4ccnc(Nc5ccc(OC(F)(F)F)cc5)c4)no3)cc2)cc1 ?
OUT: 92.2

IN: What value of measured viability at 50 µM is listed for O=S(=O)(Nc1ccc(-c2nc(-c3ccnc(Nc4ccc(OC(F)(F)F)cc4)c3)no2)cc1)c1ccc(Br)cc1 ?
OUT: 82.5

IN: Param item = CC(=O)c1ccc(S(=O)(=O)Nc2ccc(-c3nc(-c4ccnc(Nc5ccc(OC(F)(F)F)cc5)c4)no3)cc2)cc1 ; retrieve measured viability at 50 µM.
OUT: 98.1

IN: viability at 50 µM lookup needed for CC(C)(C)c1ccc(S(=O)(=O)Nc2ccc(-c3nc(-c4ccnc(Nc5ccc(Cl)cc5F)c4)no3)cc2)cc1 , thanks.
OUT: 88.5

IN: Recorded viability at 50 µM for Cc1ccc(Nc2cc(-c3noc(-c4ccc(NS(=O)(=O)c5ccc(C(C)(C)C)cc5)cc4)n3)ccn2)cc1 , please?
OUT: 87.9

IN: Please look up its viability at 50 µM: O=S(=O)(Nc1ccc(-c2nc(-c3ccnc(Nc4ccc(OC(F)(F)F)cc4)c3)no2)cc1)c1ccc(Cl)s1
OUT: 87.9

IN: Name the reported viability at 50 µM value associated with the compound O=S(=O)(Nc1ccc(-c2nc(-c3ccnc(Nc4ccc(OC(F)(F)F)cc4)c3)no2)cc1)c1ccc(F)cc1
OUT: 97.9

IN: What does the data say about its viability at 50 µM? Entry: Cc1cccc(Nc2cc(-c3noc(-c4ccc(NS(=O)(=O)c5ccc(C(C)(C)C)cc5)cc4)n3)ccn2)c1
OUT: 93.8

IN: Which viability at 50 µM is listed for COC(=O)c1ccc(S(=O)(=O)Nc2ccc(-c3nc(-c4ccnc(Nc5ccc(OC(F)(F)F)cc5)c4)no3)cc2)s1 ?
OUT: 98.6

IN: Fill in the blank: the reported viability at 50 µM of CC(C)(C)c1ccc(S(=O)(=O)Nc2ccc(-c3nc(-c4ccnc(Nc5ccc(F)c(F)c5)c4)no3)cc2)cc1 is ____.
OUT: 92.7

IN: Param item = CCc1ccc(Nc2cc(-c3noc(-c4ccc(NS(=O)(=O)c5ccc(C(C)(C)C)cc5)cc4)n3)ccn2)cc1 ; retrieve measured viability at 50 µM.
OUT: 83.6

IN: Requested read-out: viability at 50 µM. Entry: CC(=O)Nc1cccc(S(=O)(=O)Nc2ccc(-c3nc(-c4ccnc(Nc5ccc(OC(F)(F)F)cc5)c4)no3)cc2)c1
OUT: 79.2
